- Tested on: CCRF/CEM (human leukemia)
- ASSAY METHOD TEXT: Antiproliferative assay in vitro (MTT)
- Format: cell-based
- CONDITIONS: Homo sapiens, CCRF-CEM, read-out: Cytotoxic activity IC50, Human CCRF/CEM
ENDPOINT: IC50 (µg/mL)
Express your answer in µg/mL, writing the number without its unit.

The observed IC50 for C=C(C)C1CC[C@]2(COC(=O)C#Cc3ccccc3)CC[C@]3(C)C(CCC4[C@@]5(C)CC[C@H](OC(=O)C#Cc6ccccc6)C(C)(C)C5CC[C@]43C)C12 (stereo partly shown) when tested with CCRF/CEM (human leukemia) stands at 66

The compound C=C(C)C1CC[C@]2(COC(=O)C#Cc3ccccc3)CC[C@]3(C)C(CCC4[C@@]5(C)CC[C@H](O)C(C)(C)C5CC[C@]43C)C12 (stereo partly shown) , tested on CCRF/CEM (human leukemia), showed IC50 of 49

Recorded IC50 for C=C(C)C1CC[C@]2(COC(=O)OCC)CC[C@]3(C)C(CCC4[C@@]5(C)CC[C@H](OC(=O)OCC)C(C)(C)C5CC[C@]43C)C12 (stereo partly shown) [Compound 4d, 3,28-O,O'-Di(ethoxycarbonyl)betulin] on CCRF/CEM (human leukemia) was 52.6

The compound C=C(C)C1CC[C@]2(COC(=O)OCC)CC[C@]3(C)C(CCC4[C@@]5(C)CC[C@H](O)C(C)(C)C5CC[C@]43C)C12 (stereo partly shown) , tested on CCRF/CEM (human leukemia), showed IC50 of 4.1

Per the reported CCRF/CEM (human leukemia) data, C=C(C)C1CC[C@]2(COC(=O)CC)CC[C@]3(C)C(CCC4[C@@]5(C)CC[C@H](O)C(C)(C)C5CC[C@]43C)C12 (stereo partly shown) has IC50 of 8.1

Form field IC50 for item C=C(C)[C@@H]1CC[C@]2(CO)CC[C@]3(C)[C@H](CC[C@@H]4[C@@]5(C)CC[C@H](O)C(C)(C)[C@@H]5CC[C@]43C)[C@@H]12 [Compound 1, lup-20(29)-ene-3β,28-diol, reference compound] on CCRF/CEM (human leukemia): 10.9

# value of IC50, CCRF/CEM (human leukemia), item C#CCCOC(=O)OC[C@]12CCC(C(=C)C)C1C1CCC3[C@@]4(C)CC[C@H](O)C(C)(C)C4CC[C@@]3(C)[C@]1(C)CC2 (stereo partly shown) = 5.2

Per the reported CCRF/CEM (human leukemia) data, C#CC(=O)OC[C@]12CCC(C(=C)C)C1C1CCC3[C@@]4(C)CC[C@H](OC(=O)C#C)C(C)(C)C4CC[C@@]3(C)[C@]1(C)CC2 (stereo partly shown) has IC50 of 9.9

Reported CCRF/CEM (human leukemia) IC50 for item C=C(C)C1CC[C@]2(COC(=O)OCC#CC)CC[C@]3(C)C(CCC4[C@@]5(C)CC[C@H](O)C(C)(C)C5CC[C@]43C)C12 (stereo partly shown) was 6.8

Item C#CC(=O)OCC12CCC(C(=C)C)C1C1CCC3C4(C)CCC(O)C(C)(C)C4CCC3(C)C1(C)CC2 (stereo not shown) was tested on CCRF/CEM (human leukemia); the reported IC50 is 0.02

* * *

- Tested on: P388 (mouse leukemia)
- ASSAY METHOD TEXT: Antiproliferative assay in vitro (MTT)
- Format: cell-based

MOLECULE	Cytotoxic activity IC50, Murine P388
C#CCOC(=O)O[C@H]1CC[C@@]2(C)C(CC[C@]3(C)C2CCC2C4C(C(=C)C)CC[C@]4(COC(C)=O)CC[C@]23C)C1(C)C (stereo partly drawn)	Neg
C=C(C)C1CC[C@]2(COC(C)=O)CC[C@]3(C)C(CCC4[C@@]5(C)CC[C@H](OC(=O)OCC#CC)C(C)(C)C5CC[C@]43C)C12 (stereo partly drawn)	Neg
C=C(C)C1CC[C@]2(COC(C)=O)CC[C@]3(C)C(CCC4[C@@]5(C)CC[C@H](OC(=O)OCC)C(C)(C)C5CC[C@]43C)C12 (stereo partly drawn) [Compound 8d, 28-O-Acetyl-3-O'-(ethoxycarbonyl)betulin]	Neg
